Measurement Label: melting point

Known melting point results, listed for orientation:
Molecule	melting point
COc1cccc(Oc2cccc3c2C2(COc4cc5c(cc42)OCCO5)C(=O)N3C)c1 (stereo unspecified)	166 to 168 °C
CNC(=O)c1cc(Cl)cc(Cl)c1NC(=O)c1cc(Br)nn1-c1ccccc1Cl	209 to 210 °C
CC1(C)OC(=O)[C@H](CC(=O)O)O1	108 to 110 °C
Fc1cccc(F)c1C1=NC(c2ccc(-c3ccc(OCc4ccc(C(F)(F)F)cc4)cc3)cc2)CO1 (stereo unspecified)	166 °C
CCc1oc2ccc(C(C)C(=O)O)cc2c(=O)c1C (stereo unspecified)	196 to 198 °C
Cc1ncc(CO)c(CN(C)C)c1O	146 to 151 °C
CC(C)CCCC(C)C1CCC2C3=CC=C4CC(O)C(OCCCO)C(O)C4(C)C3CCC21C (stereo unspecified)	114 to 116 °C
COC(=O)c1cc2c(Nc3ncccn3)cccc2s1	206 to 208 °C

Here are 2 molecules. What values of melting point were reported for them?
1. NS(=O)(=O)c1cc2ncc(O)cc2s1
2. COc1cc(Sc2ccncc2)ccc1[N+](=O)[O-]

Response:
["248 to 250 °C", "97 to 100 °C"]

Prompt: Item Cc1cc(C(N)=O)c2c(c1)C(C(Cl)(Cl)Cl)OC(C(Cl)(Cl)Cl)O2 (stereo unspecified) : provide melting point
Response: 281 to 283 °C

###

Measurement Label: melting point

Known melting point results, listed for orientation:
Molecule	melting point
Cn1c(C(F)(F)F)ccc(-c2cc(C#N)c(Cl)cc2F)c1=O	180 to 181 °C
CN(C)C=Nc1sc(C=Nc2ccccc2)c(Cl)c1C#N	174 °C
CCOC(=O)C=CC=Cc1cn(-c2cccnc2)c2ccccc12	112 to 113 °C
NC(=S)NN=C(CNC(=O)c1ccccc1)c1ccccc1	171 to 172 °C

Here are 2 molecules. What values of melting point were reported for them?
1. CCCCCCCCCCCC(=O)N(N=C=S)C(CCCCN)C(=O)O (centres undefined)
2. Cc1nc2cc(OCCCN3CC=C(c4c[nH]c5ccc(C#N)cc45)CC3)ccc2s1

Response:
1: 37 to 39 °C; 2: 263 to 265 °C

###

Exercise: for every item that follows, state its recorded melting point.

Compound	melting point
O=Cc1c2ccc(Cl)cc2c(Cl)c2ccc(Cl)cc12	269 to 271 °C
CCOC(=O)c1oc2cc(O)c(O)cc2c1C	212 to 214 °C

Here are 7 compounds. What values of melting point were reported for them?
1. COc1cccc(OC)c1C=CC(=O)c1c(OC)cccc1OC
2. Cc1cnc(NCCc2ccccn2)c(=O)n1NC(=O)CCc1cc(C(F)(F)F)ccc1F
3. CC(C)(C)CNC(=O)Oc1ccccc1
4. O=C1c2ccccc2-c2c1nc(Cl)c1ccccc21
5. CN(C)c1ccc(NC(=O)N(Cc2ccccc2)C[C@@H]2CCCC[C@H]2CN(Cc2ccccc2)C(=O)Nc2ccc(N(C)C)cc2)cc1 (relative stereo)
6. COc1ccc(N(C(=O)CN2C(=O)C(Cc3n[nH]c4ccccc34)(OC)C(=O)N(c3cccnc3)c3ccccc32)C(C)C)cc1 (stereo not given)
7. O=[N+]([O-])c1ccc2c(c1)SC1=NCCCN12

Response:
1. 179 to 180 °C
2. 181 to 184 °C
3. 77 to 78 °C
4. 242 to 244 °C
5. 109 to 113 °C
6. 207 to 209 °C
7. 248 °C

Here are 7 compounds. What values of melting point were reported for them?
1. CC(F)C1C(=O)NC1CC(=O)OCc1ccccc1 (mixture of isomers)
2. CC(C)(C)Oc1ccc(CCC(=O)OCc2ccc([N+](=O)[O-])cc2)cc1
3. O=c1[nH]c(=O)n(C2CC2)c2nc(S(=O)(O)=S)c(F)cc12
4. C/C=C/C/C=C/CCCCCCCC(=O)Nc1nc(CC(=O)O)cs1
5. CCOC(=O)/C=C/c1cn(-c2ccc(C(F)(F)F)cn2)nc1C1CCCCC1
6. COc1ccc2c(c1)Sc1cc(OC)ccc1N2C
7. CCN(c1ccccc1)c1nc(=O)c2cccnc2s1

Response:
1: 40 to 43 °C; 2: 30 to 32 °C; 3: 300 to 302 °C; 4: 101 to 102 °C; 5: 132 to 133 °C; 6: 166 to 167 °C; 7: 174 to 175 °C

Here are 4 compounds. What values of melting point were reported for them?
1. O=c1[nH]c2cc(Cl)ccc2c(O)c1-c1ccc([N+](=O)[O-])cc1
2. Cc1ccc2nc(N3CC[C@@H](O)C3)ccc2c1NC(=O)CC1CCCCC1
3. CC(C)(C)N[C@@H]1CCc2c(ccc(OCc3ccccc3)c2C#N)[C@H]1O (relative stereo)
4. CCCC1=C(C(=O)OCC)C(c2cccc(C)c2OC)c2c[nH]nc2N1 (stereo not given)

Response:
["> 350 °C", "248 to 249 °C", "120 to 122 °C", "220 to 222 °C"]

###

Measurement Label: melting point

Known melting point results, listed for orientation:
Compound	melting point
CC(C)c1cccc(C(C)C)c1OS(=O)(=O)C(OC(N)=O)c1c(C(C)C)cccc1C(C)C (stereo not given)	95 to 101 °C
CCCCCCCCCC(O)C#CC(=O)O (stereo not given)	65 to 66 °C
Cc1nc2c(N)nc3ccccc3c2n1CCCOCC#Cc1ccccc1	160 to 162 °C

Here are 2 compounds. What values of melting point were reported for them?
1. COc1ccc(-c2cc3cc(F)c(F)cc3[nH]2)cc1NS(=O)(=O)c1cccc(N)c1
2. O=C(O)COc1ccc2c(=O)c3c(F)cccc3oc2c1Cl

Response:
1. 235 to 238 °C
2. 300 °C

###

Exercise: for every item that follows, state its recorded melting point.

Molecule	melting point
CCCC/C(=C\C=C\C(=O)O)c1cccc(OC)c1	77.5 to 78.5 °C
COCCOc1cc(/C=C/C(=O)NS(=O)(=O)CCC(C)C)n(Cc2ccc(C(F)(F)F)cc2Cl)n1	114 to 116 °C

Here are 6 molecules. What values of melting point were reported for them?
1. CN(C)CC(=O)NCc1cccc(-c2cc3c(Nc4ccc(F)c(Cl)c4)ncnc3[nH]2)c1
2. NC(=O)N(O)Cc1cccc2ccsc12
3. COCCNC(=O)Cn1nc(-c2ccccc2O)nc1-c1ccccc1O
4. CN(C)c1cccc2c(S(=O)(=O)N3CCC(NC(=O)Nc4ccc(OC(F)(F)F)cc4)CC3)cccc12
5. N#Cc1ccc2[nH]cc(CCNCC(F)(F)F)c2c1
6. CCS(=O)(=O)N[C@H](C(=O)NCCc1cc(Br)c(O)c(OC)c1)C(C)C

Response:
1. 272 to 273 °C
2. 138 to 140 °C
3. 184 to 186 °C
4. 102 to 107 °C
5. 102 °C
6. 145 to 147 °C

Here are 5 molecules. What values of melting point were reported for them?
1. COc1c(S(=O)(=O)NCc2ccc(Cl)cc2)cc(Br)c2ccc(C)nc12
2. Cc1c(C)c2c(c(C)c1O)SC(C)(C)O2
3. Nc1ccc(C(CC2CCCC2)C(=O)Nc2nccs2)cc1 (stereo unspecified)
4. CC(C(=O)CC#N)c1ccc(-c2ccccc2)c(F)c1 (stereo unspecified)
5. CC(=O)c1cccc(Oc2ncccc2C(=O)NCc2ccc(S(N)(=O)=O)cc2)c1

Response:
108 to 110 °C
62 to 64.5 °C
102 to 107 °C
84 to 85 °C
162 to 164 °C

Here are 3 molecules. What values of melting point were reported for them?
1. COc1ccc2cc(C(C)=CC(=O)O)cc(F)c2c1
2. O=C(O)c1ccc(C#Cc2ccc(OCC(O)CO)c(C34CC5CC(CC(C5)C3)C4)c2)cc1 (stereo unspecified)
3. CCOC(=O)c1c(CC)nc2c(C(F)(F)F)cccc2c1O

Response:
["214 to 217 °C", "300 to 302 °C", "129 °C"]

###

Measurement Label: melting point

Molecule	melting point
CCCN(C(=O)C=C(C)C)c1cccc(Br)c1	50 to 51 °C

Here are 6 molecules. What values of melting point were reported for them?
1. C#CCOc1ccc2c(c1)c(-c1ccc(C3CC3)cc1)nc(=O)n2Cc1ccccc1
2. COc1ccc(C(O)CCN2CC=C(c3ccc(Cl)cc3)CC2)cc1 (stereo not given)
3. COc1ccc(COc2ccc(CSc3ccc(OCC(=O)O)c4c3CCC4)cc2)cc1
4. O=C(O)CCCCc1nn(-c2ccccc2)c2c1CCC2
5. CC(=O)N1CC(CCN2CC=C(c3ccccc3)CC2)c2ccccc21 (stereo not given)
6. CC(C)(C)c1cc(SC2(Sc3cc(C(C)(C)C)c(O)c(C(C)(C)C)c3)CCCCCC2)cc(C(C)(C)C)c1O

Response:
1. 112 to 113 °C
2. 116 to 118 °C
3. 183 to 185 °C
4. 98 to 99 °C
5. 109 to 111 °C
6. 144 to 146 °C

Here are 3 molecules. What values of melting point were reported for them?
1. O=C(NC(=O)N1C(=O)Cc2ccccc21)c1ccccc1
2. O=C(O)c1ccccc1C(=O)c1ccncc1
3. CC1CN(C)N(c2cc(Cl)cc(Cl)c2)C(=O)N1 (stereo not given)

Response:
1: 184 °C; 2: 191 to 193 °C; 3: 129 to 130 °C
